subjectOfTest: ΔF508-CFTR (Homo sapiens, UniProt P13569, DEL508-508)
Construct: host or cells: CFBE41o-, doxycycline-inducible
Sequence (P13569 with tags, fused parts or gaps DEL508-508): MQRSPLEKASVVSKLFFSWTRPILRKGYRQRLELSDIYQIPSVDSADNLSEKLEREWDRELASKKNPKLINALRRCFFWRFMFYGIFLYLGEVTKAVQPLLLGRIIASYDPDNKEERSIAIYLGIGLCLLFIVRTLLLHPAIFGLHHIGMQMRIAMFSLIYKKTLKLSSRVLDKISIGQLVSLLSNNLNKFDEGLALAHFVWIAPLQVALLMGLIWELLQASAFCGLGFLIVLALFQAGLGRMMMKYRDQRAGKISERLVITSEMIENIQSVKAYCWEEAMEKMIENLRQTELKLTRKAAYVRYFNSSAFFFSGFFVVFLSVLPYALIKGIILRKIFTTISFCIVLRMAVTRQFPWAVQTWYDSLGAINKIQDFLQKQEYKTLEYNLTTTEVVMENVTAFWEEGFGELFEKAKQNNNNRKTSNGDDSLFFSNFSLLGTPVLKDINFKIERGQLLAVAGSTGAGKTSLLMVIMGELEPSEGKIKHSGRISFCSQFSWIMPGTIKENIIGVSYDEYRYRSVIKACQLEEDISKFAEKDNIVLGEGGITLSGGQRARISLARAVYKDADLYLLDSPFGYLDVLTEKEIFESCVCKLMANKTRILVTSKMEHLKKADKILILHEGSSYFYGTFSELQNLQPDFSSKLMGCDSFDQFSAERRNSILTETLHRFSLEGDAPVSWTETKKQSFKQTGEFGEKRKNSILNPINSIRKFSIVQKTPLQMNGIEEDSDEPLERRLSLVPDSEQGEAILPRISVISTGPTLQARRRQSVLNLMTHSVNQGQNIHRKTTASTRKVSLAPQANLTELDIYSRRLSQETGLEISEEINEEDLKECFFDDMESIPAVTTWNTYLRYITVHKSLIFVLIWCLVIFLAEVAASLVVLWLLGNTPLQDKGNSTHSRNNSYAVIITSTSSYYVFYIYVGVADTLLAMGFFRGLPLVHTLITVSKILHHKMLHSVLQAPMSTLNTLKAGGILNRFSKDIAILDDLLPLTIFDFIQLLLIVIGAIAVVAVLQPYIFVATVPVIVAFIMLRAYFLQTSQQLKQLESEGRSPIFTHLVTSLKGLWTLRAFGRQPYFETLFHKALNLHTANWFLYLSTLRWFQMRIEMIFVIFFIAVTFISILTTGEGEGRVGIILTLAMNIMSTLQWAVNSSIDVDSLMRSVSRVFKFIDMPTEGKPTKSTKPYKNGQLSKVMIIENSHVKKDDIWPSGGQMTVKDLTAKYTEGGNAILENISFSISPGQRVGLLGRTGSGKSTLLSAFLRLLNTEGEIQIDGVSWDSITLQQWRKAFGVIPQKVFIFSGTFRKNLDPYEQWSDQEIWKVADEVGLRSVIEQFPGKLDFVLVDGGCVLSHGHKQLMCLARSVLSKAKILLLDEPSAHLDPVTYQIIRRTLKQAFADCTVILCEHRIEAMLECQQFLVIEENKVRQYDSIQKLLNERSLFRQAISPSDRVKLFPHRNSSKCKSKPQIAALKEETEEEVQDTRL
measurementProtocol: CFTR cell surface levels using HRP-tagged ΔF508-CFTR expressing CFBE cells, in the presence of a co-corrector
Type: cell-based
conditionContext: HRP-tagged ΔF508-CFTR expressing CFBE cells, in the presence of 3 μM co-corrector
Flag rule - % Activation less than 400% flags 1 (yes); the remaining entries get 0 (no).

Solved cases below.
>  <compound>
Cc1nn(-c2ccccc2)c2nc(C(=O)O)cc(N3CCC4(CCNC4=O)C3)c12 (centres unmarked)

>  <subjectOfTest>
ΔF508-CFTR (Homo sapiens, UniProt P13569, DEL508-508)

>  <classification>
1 (yes)

$$$$
>  <compound>
Cc1nn(-c2ccccc2)c2nc(C(=O)O)cc(-c3ccc(N4CC5CCC(C4)O5)cc3)c12

>  <subjectOfTest>
ΔF508-CFTR (Homo sapiens, UniProt P13569, DEL508-508)

>  <classification>
1 (yes)

$$$$
>  <compound>
Cc1nn(-c2ccccc2)c2nc(C(=O)O)cc(N3CCOCC3)c12

>  <subjectOfTest>
ΔF508-CFTR (Homo sapiens, UniProt P13569, DEL508-508)

>  <classification>
1 (yes)

$$$$
>  <compound>
CCN(CC)CCN1CCN(c2cc(C(=O)O)nc3c2c(C(C)C)nn3-c2ccc(F)cc2)CC1

>  <subjectOfTest>
ΔF508-CFTR (Homo sapiens, UniProt P13569, DEL508-508)

>  <classification>
1 (yes)

$$$$
>  <compound>
CCCN1CCN(c2cc(C(=O)O)nc3c2c(C2CCC2)nn3-c2ccccc2)CC1

>  <subjectOfTest>
ΔF508-CFTR (Homo sapiens, UniProt P13569, DEL508-508)

>  <classification>
1 (yes)

$$$$
>  <compound>
CC(C)c1nn(-c2cc(F)cc(F)c2)c2nc(C(=O)O)cc(-c3cnc(N(C)C4CCOCC4)nc3)c12

>  <subjectOfTest>
ΔF508-CFTR (Homo sapiens, UniProt P13569, DEL508-508)

>  <classification>
0 (no)

$$$$
>  <compound>
Cc1nn(-c2ccccc2)c2nc(C(=O)O)cc(O[C@H]3CCN(C)C3)c12

>  <subjectOfTest>
ΔF508-CFTR (Homo sapiens, UniProt P13569, DEL508-508)

>  <classification>
1 (yes)

$$$$

Note: attention shifts to another entry.
Qu. Is % Activation strictly under 400% for the entry "COCCN(C)c1ccc(-c2cc(C(=O)O)nc3c2c(C(C)C)nn3-c2cccc(N3CCCC3)c2)cn1" ?
Ans. 0 (no)

Values were extracted from patent US9796711B2.
